Target or test system: WT-TTR (Homo sapiens, UniProt P02766)
Construct: made in house
Assay text: stagnant acid-mediated TTR fibril formation assay (turbidity)
Format: biochemical
Stated conditions: inhibitor 3.6 μM, WT-TTR 3.6 μM, pH 4.4, 72 h
Measured endpoint: inhibitor potency against fibril formation (in words)

• O=C(O)c1cccc2c1oc1c(C(=O)O)ccc(-c3cc(Cl)cc(Cl)c3)c12 [Compound 63] = most potent
• O=C(O)c1cccc2c1oc1c(C(=O)O)ccc(-c3ccccc3F)c12 [Compound 67] = most potent
• O=C(O)c1cccc(Nc2ccc(C(=O)O)c3oc4c(C(=O)O)cccc4c23)c1 [Compound 33] = amongst the most potent
• O=C(O)c1cccc(-c2ccc(C(=O)O)c3oc4c(C(=O)O)cccc4c23)c1 [Compound 69] = amongst the most potent
• O=C(O)c1cccc2c1oc1c(C(=O)O)ccc(Nc3ccccc3F)c12 [Compound 36] = most potent
